Tested on: CAKI-1 renal
Assay: NCI-60 one-dose screen, 48 h (100 = growth as untreated, 0 = no growth, -100 = all killed)
Conditions: 10 µM unless noted
About 83,000 compounds went through this panel and 20% of them were active in at least one assay; those are over-represented in the sample as a whole.
Field 'label' (enum: criterion met / criterion not met). Set to criterion met when growth is strictly under 70%; else criterion not met.

{"smiles-record": "COC1=CC(c2ccc[nH]2)=N/C1=C\\c1[nH]c(C)c(CC(=O)OCc2ccccc2)c1CCC(=O)OCc1ccccc1", "class": "criterion met"}
{"smiles-record": "Cc1sc2nc(NCCc3c[nH]c4ccc(Cl)cc34)[nH]c(=O)c2c1C", "class": "criterion met"}
{"smiles-record": "CCOC(=O)[C@@H]1CSC(CC)=C(C(=O)O)N1", "class": "criterion not met"}
{"smiles-record": "Cc1cccc(/C=C2\\CN(C(=O)OC(C)(C)C)C/C(=C\\c3cccc(C)c3)C2=O)c1", "class": "criterion not met"}
{"smiles-record": "C#CCOc1cccc(Nc2ncnc3cc(NC(=O)C=C)ccc23)c1", "class": "criterion met"}

Is the reported growth for Cc1ccc(Nc2cc(N)nc(N)n2)cc1Cl strictly below 70%?
criterion not met

Is the reported growth for Cn1cc(-c2csc(-c3c[nH]c4ccccc34)n2)c2cnccc21 strictly below 70%?
criterion met

Is the reported growth for COc1ccc(\C=N/N=C(N)/C(N)=N\N=C/c2ccc(OC)cc2)cc1 strictly below 70%?
criterion not met

Is the reported growth for COC1=CC(c2ccc[nH]2)=N/C1=C\c1[nH]c(C)c(C)c1CCC(=O)OCc1ccccc1 strictly below 70%?
criterion met

Is the reported growth for COc1cc(OC)c(NC(=O)c2cc3ccccc3cc2O)cc1Cl strictly below 70%?
criterion met

The measurements presented in this section are drawn from PubChem BioAssay (NCI).
